inhibition at 0.003 µM values, listed per item
- Target Of Assay: PAF specific receptor binding site, human platelet membranes (Homo sapiens, UniProt P25105)
- Construct: from tissue; host or cells: human platelets (plasma membrane suspension)
- Sequence (P25105 whole entry): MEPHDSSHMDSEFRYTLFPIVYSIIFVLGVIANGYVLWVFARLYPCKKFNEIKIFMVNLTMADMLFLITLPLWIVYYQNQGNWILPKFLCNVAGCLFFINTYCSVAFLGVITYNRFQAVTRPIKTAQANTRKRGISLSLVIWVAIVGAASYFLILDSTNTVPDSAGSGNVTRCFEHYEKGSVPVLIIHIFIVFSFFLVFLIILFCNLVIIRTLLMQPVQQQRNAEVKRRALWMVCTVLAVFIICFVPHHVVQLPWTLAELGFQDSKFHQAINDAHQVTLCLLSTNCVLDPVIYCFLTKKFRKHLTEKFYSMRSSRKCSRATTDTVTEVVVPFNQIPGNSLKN
- Test Summary: Inhibition of [3H] N-methylcarbamoyl-PAF binding to human platelet membranes
- Experimental Conditions: 3 nM, trans configuration
Numeric only. Scale: %

Input: Returns the measured inhibition at 0.003 µM for the input molecule. Input: CCCOc1c(OCCCO)cc([C@@H]2CC[C@@H](c3cnc(OC)c(OC)c3)O2)cc1S(=O)(=O)CC(C)=O (relative stereo)
Output: 43

Input: Returns the measured inhibition at 0.003 µM for the input molecule. Input: CCCOc1c(OCC(C)O)cc([C@@H]2CC[C@@H](c3cnc(OC)c(OC)n3)O2)cc1S(=O)(=O)CCC (stereo partly shown)
Output: 60

Input: Returns the measured inhibition at 0.003 µM for the input molecule. Input: CCCOc1c(OCC(C)=O)cc([C@@H]2CC[C@@H](c3cnc(OC)c(OC)c3)O2)cc1S(=O)(=O)CC(C)O (stereo partly shown)
Output: 31

Input: Returns the measured inhibition at 0.003 µM for the input molecule. Input: CCCOc1c(OCC(C)O)cc([C@@H]2CC[C@@H](c3cnc(OC)c(OC)c3)O2)cc1S(=O)(=O)CCC (stereo partly shown)
Output: 54

====

- Target Of Assay: PAF specific receptor binding site, human platelet membranes (Homo sapiens)
- Construct: from tissue; host or cells: human platelets (plasma membrane suspension)
- Test Summary: Inhibition of [3H] N-methylcarbamoyl-PAF binding to human platelet membranes
- Experimental Conditions: 30 nM, trans configuration
Quantity Measured: inhibition at 0.03 µM (%)
Numeric only. Scale: %

Input: Report inhibition at 0.03 µM for CCCOc1c(OCC(C)O)cc([C@@H]2CC[C@@H](c3cnc(OC)c(OC)c3)O2)cc1S(=O)(=O)CCC (some centres unmarked) tested on PAF specific receptor binding site, human platelet membranes (Homo sapiens).
Output: 100

====

- Target Of Assay: PAF specific receptor binding site, human platelet membranes (Homo sapiens)
- Construct: from tissue; host or cells: human platelets (plasma membrane suspension)
- Test Summary: Inhibition of [3H] N-methylcarbamoyl-PAF binding to human platelet membranes
- Experimental Conditions: 3 nM, trans configuration
inhibition at 0.003 µM values, listed per item
Could you kindly put the unit after your number?

Molecule | inhibition at 0.003 µM
CCCOc1c(OCC(C)=O)cc([C@@H]2CC[C@@H](c3cnc(OC)c(OC)c3)O2)cc1S(=O)(=O)CCCO (relative stereo) | 30%
CCCOc1c(OCCO)cc([C@@H]2CC[C@@H](c3cnc(OC)c(OC)c3)O2)cc1S(=O)(=O)CC(C)O (stereo partly shown) | 13%
CCCOc1c(OCCCO)cc([C@@H]2CC[C@@H](c3cnc(OC)c(OC)c3)O2)cc1S(=O)(=O)CC(C)O (stereo partly shown) | 16%
CCCOc1c(OCC(C)=O)cc([C@H]2CC[C@H](c3cccnc3)O2)cc1S(=O)(=O)CCC (relative stereo) | 12%
CCCOc1c(OCC(C)=O)cc([C@@H]2CC[C@@H](c3cnc(OC)c(OC)c3)O2)cc1S(=O)(=O)CCC (relative stereo) | 63%
CCCOc1c(OCC(C)=O)cc([C@@H]2CC[C@@H](c3cnc(OC)c(OC)n3)O2)cc1S(=O)(=O)CCC (relative stereo) | 58%

Next:
Input: Returns the measured inhibition at 0.003 µM for the input molecule. Input: CCCOc1c(OCC(C)=O)cc([C@@H]2CC[C@@H](c3cnc(OC)c(OC)n3)O2)cc1S(=O)(=O)CC(C)O (stereo partly shown)
Output: 42%
